Attribution: the supplement of paper PMC8728848

- Target System: Gal3S(b1-4)GlcNAc6S
- Assay Details: glycan array binding signal (z-score within array); higher = stronger binding
- Test Settings: glycan notation: IUPAC condensed, linker removed
The full list was thinned out, with the strongest signals kept by preference.
Measurement Kind: glycan array binding signal (z-score)
// print number alone

Give recorded glycan array binding signal (z-score). rPitB (Streptococcus pneumoniae), A0A0I7U739 (protein) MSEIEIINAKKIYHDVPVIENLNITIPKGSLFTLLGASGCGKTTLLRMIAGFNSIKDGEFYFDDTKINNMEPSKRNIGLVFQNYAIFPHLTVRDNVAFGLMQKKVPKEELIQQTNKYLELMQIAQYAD 0.471

Find the measured glycan array binding signal (z-score) of Eosinophil-derived neurotoxin (EDN) (Homo sapiens), P10153 (protein) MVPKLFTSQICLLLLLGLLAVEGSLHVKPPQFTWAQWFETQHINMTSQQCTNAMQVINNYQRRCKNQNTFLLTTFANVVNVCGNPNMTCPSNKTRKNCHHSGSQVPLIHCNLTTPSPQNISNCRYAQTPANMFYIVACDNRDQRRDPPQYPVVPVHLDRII and report it. -0.506

Return reported glycan array binding signal (z-score). Input binder: GNAT (Pseudomonas aeruginosa), Q9HV14 (protein) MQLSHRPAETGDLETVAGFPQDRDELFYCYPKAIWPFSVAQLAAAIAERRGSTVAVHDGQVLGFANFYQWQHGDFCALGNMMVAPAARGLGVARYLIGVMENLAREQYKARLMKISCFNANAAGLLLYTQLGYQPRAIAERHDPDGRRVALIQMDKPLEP -0.322
